tested on: OVCAR-4 ovarian; assay: NCI tumour cell line growth inhibition, 48 h
MEASURED_QUANTITY: TGI

SAMPLE_SMILES | TGI
O=C(CC(=O)n1nc(-c2ccccc2)c(N=Nc2ccccc2Cl)c1-c1ccccc1)Nc1ccc(Cl)cc1 | > 100 µM
C=CCN1C(=O)c2cccc3c(N4CCOCC4)ccc(c23)C1=O | > 100 µM

What value of measured TGI is listed for "O=C1CC[C@H](NC(=O)Cc2ccccc2)C(=O)N1" ?
> 1250 µM

What value of measured TGI is listed for "Cc1ccc(C(=O)N/N=C(\N=Nc2cccc([N+](=O)[O-])c2)c2ccc(N(C)C)cc2)cc1" ?
> 100 µM

What value of measured TGI is listed for "COc1cc(C(c2c(O)c3ccccc3oc2=O)c2c(O)c3ccccc3oc2=O)ccc1O" ?
> 100 µM

What value of measured TGI is listed for "COc1cc(C=C(c2ccc(N(C)C)cc2)c2ccc(N(C)C)cc2)c2ccccc2c1OC" ?
> 100 µM

What value of measured TGI is listed for "CCOC(=O)C(COS(C)(=O)=O)(COS(C)(=O)=O)C(=O)OCC" ?
> 100 µM

What value of measured TGI is listed for "COC1=C(OC)C(=O)C(CCCCCCCCCC[P+](c2ccccc2)(c2ccccc2)c2ccccc2)=C(C)C1=O" ?
2.86 µM

What value of measured TGI is listed for "CCOC(=O)O/C(=C\c1ccc(OC)cc1)c1c(OC(=O)OCC)n(C(=O)OCC)c2ccccc12" ?
> 100 µM

What value of measured TGI is listed for "Cc1ccc(S(=O)(=O)c2ccccc2)cc1" ?
> 100 µM

---

test system: MDA-MB-435; assay: NCI tumour cell line growth inhibition, 48 h
Reported TGI values are given for each entry in this list.
The answer is to be given in µM; state only the numeric part.

MOLECULE | UNIT_DESCRIPTOR | TGI
Cc1nc2ccccc2nc1NNc1ccccc1 | µM | 41.7
COc1ccc(/C(C)=C(\c2ccc(Cl)cc2)c2ccc(OCCN3CCCCC3)cc2)cc1 | µM | 8.56

Let's switch to this molecule now.
What TGI appears in the records for this molecule with MDA-MB-435? c1cc[n+](C2c3ccccc3C([n+]3ccccc3)c3ccccc32)cc1 (stereo unspecified)
23

---

system: ACHN renal; experiment: NCI tumour cell line growth inhibition, 48 h; in the data active means GI50 below about 0.43 µM; inactive means the rest
Classes to choose from: active, inactive

A selection of reference data follows.
COMPOUND | CATEGORY
O=C(Cc1n[nH]c(=O)c2ccccc12)OCc1c(Cl)cccc1Cl | inactive
C=CC(=O)N1CCN(CCCn2c(=O)c(-c3c(Cl)c(OC)cc(OC)c3Cl)cc3cnc(NC)nc32)CC1 | inactive

Look up the recorded call for "O=C1/C=C/[C@@H](O)[C@@H]2C[C@@H](O)C[C@H]2/C=C/CCC[C@H](CCOCc2ccccc2)O1" in this test.
active

Look up the recorded call for "Oc1c(Br)cc(Br)c2ccc(Cn3cc(-c4ccc(C(F)(F)F)cc4)nn3)nc12" in this test.
inactive

Look up the recorded call for "COc1cc2c(/C=C3/C(=O)Nc4c3ccc3ccccc43)c(Cl)n(C)c2cc1C" in this test.
active

Look up the recorded call for "COc1cc(/C=C/C(=O)c2ccc(Nc3nc(NCCO)nc(N4CCOCC4)n3)cc2)cc(OC)c1OC" in this test.
inactive

Look up the recorded call for CCC[CH2][Sn]1([CH2]CCC)[O]CC(CN2CCCCC2)[O]1 (centres undefined) in this test.
active

Look up the recorded call for "CC[C@H](C)[C@H](NC(=O)c1ccccn1)C(=O)N(C)[C@H](C[C@@H](OC(C)=O)c1nc(C(=O)N[C@@H](Cc2ccccc2)C[C@H](C)C(=O)OC)cs1)C(C)C" in this test.
inactive

Look up the recorded call for "NC(N)=NN=C(c1ccccc1)c1ccccc1" in this test.
inactive

Look up the recorded call for "CNC(=O)c1ccccc1Nc1cc(Nc2ccc(N3CCOCC3)cc2OC)ncc1C(F)(F)F" in this test.
inactive

Look up the recorded call for "O=C(Nc1ccc2[nH]c3ccccc3c2c1)c1ccccc1Cl" in this test.
inactive

Look up the recorded call for "S=C(S)NCCNC(=S)S.[Cu+2]" in this test.
inactive

Look up the recorded call for "COC1=C(OC)C(=O)C(CCCCCCCCCC[P+](c2ccccc2)(c2ccccc2)c2ccccc2)=C(C)C1=O" in this test.
inactive

---

test system: RXF 393 renal; assay: NCI tumour cell line growth inhibition, 48 h
Where a SMILES comes first, the peptide text is derived from it. Bridges are numbered along the chain shown (N, C = ends). [ ]: non-standard residue; d: D form. The star is where a group is joined. ξ: configuration not given here. X26 = O=C(/C=C/C=C/C=C/C=C/C=C/C(=O)*)NC1=C(O)CCC1=O; Pro(4R-Me) = C[C@H]1CN[C@H](C(=O)O)C1; NMeA = CN[C@@H](C)C(=O)O; ξF = NC(Cc1ccccc1)C(=O)O; ξA = CC(N)C(=O)O
MEASURED_QUANTITY: TGI

Below: 6 compounds and their reported TGI.
COMPOUND | MEASURED_QUANTITY | OBS_VALUE
CC1NC(=O)[C@H](C)N(C)C(=O)[C@@H]2CCCN2C(=O)[C@@H](NC(=O)C(Cc2ccccc2)NC(=O)/C=C/C=C/C=C/C=C/C=C/C(=O)NC2=C(O)CCC2=O)COC(=O)[C@@H]2C[C@@H](C)CN2C1=O (stereo partly drawn) (X26-[ξF]SP[NMeA][ξA][Pro(4R-Me)]; ester 2-C) | TGI | > 100 µM
C=CC(=O)N1CCN(CCCn2c(=O)c(-c3c(Cl)c(OC)cc(OC)c3Cl)cc3cnc(NC)nc32)CC1 | TGI | 12.9 µM
NC(CCC(=O)Nc1ccc(O)cc1)C(=O)O (configuration not stated) | TGI | > 100 µM
OCCCCC#Cc1ccccc1C#Cc1ccccn1 | TGI | 62.3 µM
COc1nc(N)c(N=O)c(OCc2ccccc2)n1 | TGI | > 10 µM
O=C(CC(=O)n1nc(-c2ccccc2)c(N=Nc2ccccc2Cl)c1-c1ccccc1)Nc1ccc(Cl)cc1 | TGI | > 100 µM

Let's switch to this compound now.
What TGI appears in the records for this compound with RXF 393 renal? "CCCCCCCCCCCCc1ccsc1-c1ccc(-c2ccc(-c3sc(-c4cc(CCCCCCCCCCCC)c(-c5ccc(-c6ccc(-c7sccc7CCCCCCCCCCCC)s6)s5)s4)cc3CCCCCCCCCCCC)s2)s1"
> 100 µM

---

Reported TGI values are given for each entry in this list.
test system: DU-145 prostate; test: NCI tumour cell line growth inhibition, 48 h

COMPOUND | SYSTEM_UNDER_TEST | MEASURED_QUANTITY | OBS_VALUE
COc1ccc2cc(C#Cc3ccc(-n4c(/C=C/c5cc(OC)c(OC)c(OC)c5)nc5ccccc5c4=O)c(C)c3)ccc2c1 | DU-145 prostate | TGI | > 100 µM
CC(C)(C)OC(=O)NCCC1SC2C=CC1C2 (stereo unspecified) | DU-145 prostate | TGI | > 100 µM
CC[C@H](C)[C@H](NC(=O)c1ccccn1)C(=O)N(C)[C@H](C[C@@H](OC(C)=O)c1nc(C(=O)N[C@@H](Cc2ccccc2)C[C@H](C)C(=O)OC)cs1)C(C)C | DU-145 prostate | TGI | > 100 µM
O=C1/C=C/[C@@H](O)[C@@H]2C[C@@H](O)C[C@H]2/C=C/CCC[C@H](CCOCc2ccccc2)O1 | DU-145 prostate | TGI | > 100 µM
Clc1ccc(C(Cn2ccnc2)OCc2ccsc2Cl)c(Cl)c1 (stereo unspecified) | DU-145 prostate | TGI | 20.6 µM
CCC(=O)Nc1ccc(NCC(=O)Nc2ccc(Cl)cc2)cc1 | DU-145 prostate | TGI | 35.6 µM
NNC1=Nc2ccc(Cl)cc2C(=S)N2CSCC12 (stereo unspecified) | DU-145 prostate | TGI | > 100 µM
CC(C)(C)c1ccc(O)c(CN(Cc2c(O)ccc3ccccc23)C2CCCCC2)c1 | DU-145 prostate | TGI | 60.9 µM

What value of measured TGI is listed for "O=C1Nc2ccccc2/C1=C\c1c(-c2ccccc2)nc2ccccn12" ?
> 100 µM

What value of measured TGI is listed for "Cc1nc2ccccc2nc1NNc1ccccc1" ?
> 86.1 µM

What value of measured TGI is listed for CCOC(=O)C1OC(=O)CC1C1(C(=O)OCC)C=CC(=O)O1 (stereo unspecified) ?
> 100 µM

What value of measured TGI is listed for "O=C1C=CC(O)(C#CCO)C=C1" ?
31.6 µM

What value of measured TGI is listed for "N#CC1(Nc2ccc(Br)cc2)CCCC1" ?
> 100 µM

What value of measured TGI is listed for CC1=C(C(=O)Nc2ccc(F)c(Cl)c2)C(c2cccc(Cl)c2)NC(=S)N1 (stereo unspecified) ?
> 50 µM
